Origin of values: ChEMBL document CHEMBL3431459

Target: Carnitine O-palmitoyltransferase 1, muscle isoform (Homo sapiens)
Sequence (Q92523 whole entry): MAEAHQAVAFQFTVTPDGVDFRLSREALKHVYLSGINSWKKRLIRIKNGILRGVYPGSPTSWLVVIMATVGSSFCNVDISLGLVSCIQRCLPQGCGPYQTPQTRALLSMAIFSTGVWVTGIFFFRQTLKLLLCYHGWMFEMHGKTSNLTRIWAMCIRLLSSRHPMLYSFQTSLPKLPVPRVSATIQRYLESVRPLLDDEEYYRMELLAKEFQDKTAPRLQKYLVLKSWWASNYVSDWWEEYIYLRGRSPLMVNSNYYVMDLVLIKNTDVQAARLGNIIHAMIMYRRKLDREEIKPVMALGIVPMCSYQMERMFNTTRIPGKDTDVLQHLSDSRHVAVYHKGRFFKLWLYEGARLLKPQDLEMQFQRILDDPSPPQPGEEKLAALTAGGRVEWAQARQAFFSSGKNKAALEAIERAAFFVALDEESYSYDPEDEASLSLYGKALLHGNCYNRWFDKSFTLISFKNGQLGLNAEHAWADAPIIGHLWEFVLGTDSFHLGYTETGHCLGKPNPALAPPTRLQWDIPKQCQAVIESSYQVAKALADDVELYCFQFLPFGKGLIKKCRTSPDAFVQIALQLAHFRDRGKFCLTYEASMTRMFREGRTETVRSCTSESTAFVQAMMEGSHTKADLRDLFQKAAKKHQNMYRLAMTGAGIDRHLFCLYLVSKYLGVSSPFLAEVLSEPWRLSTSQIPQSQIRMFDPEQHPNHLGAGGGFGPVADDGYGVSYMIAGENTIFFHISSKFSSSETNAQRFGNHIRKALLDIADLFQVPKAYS
Experiment: SUPPLEMENTARY: Inhibition of Carnitine palmitoyltransferase 1, muscle isoform
TEST_READOUT: IC50 (µM)
I only need the number, in µM, no unit after it.

COMPOUND: COCCN(c1cc(C(=O)Nc2nc(CC(=O)O)cs2)cc2c1OCO2)S(=O)(=O)c1cc(Cl)ccc1OC
IC50 (µM): 3.56
//
COMPOUND: COc1ccc(Cl)cc1S(=O)(=O)N1COc2c(F)cc(C(=O)Nc3nc(CC(=O)O)cs3)cc21
IC50 (µM): 0.553
//
COMPOUND: COc1ccc(Cl)cc1S(=O)(=O)N1CCc2c(C)cc(C(=O)Nc3ccc(C(=O)O)c(F)c3)cc21
IC50 (µM): 3.68

Problem: Please tell me the measured IC50 for `COC(=O)c1cccc(-c2csc([C@H]3CCCCN3C(=O)COc3ccccc3)n2)n1` ; system: Carnitine O-palmitoyltransferase 1, muscle isoform (Homo sapiens).
Result: 7.62

Problem: Give IC50 for this entry on Carnitine O-palmitoyltransferase 1, muscle isoform (Homo sapiens): `COc1ccc(Cl)cc1S(=O)(=O)Nc1cc(C(=O)Nc2ccccc2)ccc1CCC(=O)O`
Result: 46.8

---

Target: Carnitine O-palmitoyltransferase 2, mitochondrial (Homo sapiens, UniProt P23786)
Sequence (P23786 whole entry): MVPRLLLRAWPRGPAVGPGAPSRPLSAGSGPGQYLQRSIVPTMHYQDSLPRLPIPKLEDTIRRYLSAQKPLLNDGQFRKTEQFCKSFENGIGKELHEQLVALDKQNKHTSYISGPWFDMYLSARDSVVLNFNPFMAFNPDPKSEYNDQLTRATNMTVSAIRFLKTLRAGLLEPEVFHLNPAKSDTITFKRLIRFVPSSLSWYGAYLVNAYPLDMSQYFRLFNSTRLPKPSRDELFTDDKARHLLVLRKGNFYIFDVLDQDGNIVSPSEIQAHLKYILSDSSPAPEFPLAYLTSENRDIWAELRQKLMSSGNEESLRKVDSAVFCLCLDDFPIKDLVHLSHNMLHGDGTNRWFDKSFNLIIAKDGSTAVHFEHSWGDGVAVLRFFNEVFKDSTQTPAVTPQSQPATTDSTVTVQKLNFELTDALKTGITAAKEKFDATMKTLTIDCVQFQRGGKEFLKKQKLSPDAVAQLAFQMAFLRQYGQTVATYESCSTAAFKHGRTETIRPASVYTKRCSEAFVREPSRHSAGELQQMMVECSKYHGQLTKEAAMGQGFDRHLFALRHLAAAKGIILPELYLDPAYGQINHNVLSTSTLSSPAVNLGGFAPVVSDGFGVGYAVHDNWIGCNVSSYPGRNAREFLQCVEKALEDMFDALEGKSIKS
TEST_READOUT: pIC50
In simple prose, pIC50 is minus the logarithm base ten of a concentration in moles per litre.

Some solved entries appear below for comparison.
SMI: O=C([C@H]1CCCCN1C(=O)COc1ccccc1)N1Cc2ccc(OC3CCOCC3)cc2C1
pIC50: 6.71
//
SMI: Nc1ccc(-c2n[nH]c([C@H]3CCCCN3C(=O)COc3ccccc3)n2)cn1
pIC50: 4.10
//
SMI: COc1ccc(Cl)cc1S(=O)(=O)N(C)c1cc(C(=O)Nc2ccc(C(=O)O)cc2)cc2c1OCCO2
pIC50: 4.68
//
SMI: CN1CCN(C(=O)COc2ccccc2)[C@@H](c2nc(-c3cccc(C(F)(F)F)c3)n[nH]2)C1
pIC50: 4.02

As a next step, examine the compound that follows.
Problem: Determine from records and report pIC50 for `COc1ccc(Cl)cc1S(=O)(=O)N1CCSc2ccc(C(=O)Nc3ccc(C(=O)O)c(Cl)c3)cc21`
Result: 5.36

---

Target: Carnitine O-palmitoyltransferase 1, liver isoform (Homo sapiens)
Sequence (P50416 whole entry, canonical isoform): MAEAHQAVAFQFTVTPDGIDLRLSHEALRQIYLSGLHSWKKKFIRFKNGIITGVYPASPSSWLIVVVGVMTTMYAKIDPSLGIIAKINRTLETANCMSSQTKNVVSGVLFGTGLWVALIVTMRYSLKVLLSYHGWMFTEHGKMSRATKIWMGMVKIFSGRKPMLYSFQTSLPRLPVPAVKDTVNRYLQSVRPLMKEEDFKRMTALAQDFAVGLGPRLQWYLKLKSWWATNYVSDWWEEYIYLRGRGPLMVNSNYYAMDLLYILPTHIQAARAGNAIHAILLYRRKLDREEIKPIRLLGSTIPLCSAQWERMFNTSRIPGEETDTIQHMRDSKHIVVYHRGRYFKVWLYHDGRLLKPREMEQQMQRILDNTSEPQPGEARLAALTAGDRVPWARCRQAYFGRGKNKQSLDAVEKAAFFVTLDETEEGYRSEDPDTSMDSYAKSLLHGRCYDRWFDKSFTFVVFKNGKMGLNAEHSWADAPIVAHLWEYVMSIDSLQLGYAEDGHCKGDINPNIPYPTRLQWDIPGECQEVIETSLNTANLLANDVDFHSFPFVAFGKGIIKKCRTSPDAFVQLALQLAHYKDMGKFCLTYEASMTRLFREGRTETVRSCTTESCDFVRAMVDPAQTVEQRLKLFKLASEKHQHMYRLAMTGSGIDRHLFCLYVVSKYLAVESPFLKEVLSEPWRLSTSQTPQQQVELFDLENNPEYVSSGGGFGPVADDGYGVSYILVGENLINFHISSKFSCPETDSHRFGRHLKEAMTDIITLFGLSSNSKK
Test: SUPPLEMENTARY: Inhibition of Carnitine palmitoyltransferase 1, liver isoform
Lab note: cut-off is 80 nM. Strictly less in IC50 is True. Exactly 80 nM or more is False.

Some solved cases for reference:
COMPOUND: NC(=O)c1ccc(C#C[C@H]2CCCCN2C(=O)COc2ccccc2)cc1
TARGET_OF_ASSAY: Carnitine O-palmitoyltransferase 1, liver isoform (Homo sapiens)
CLASS_ASSIGNMENT: True

COMPOUND: O=C(COc1ccccc1)N1CCCC[C@@H]1c1nc(-c2cccc(-n3cn[nH]c3=O)c2)no1
TARGET_OF_ASSAY: Carnitine O-palmitoyltransferase 1, liver isoform (Homo sapiens)
CLASS_ASSIGNMENT: False

COMPOUND: COc1ccc(Cl)cc1S(=O)(=O)N1CCc2c(C)cc(C(=O)Nc3nc(CC(=O)O)cs3)cc21
TARGET_OF_ASSAY: Carnitine O-palmitoyltransferase 1, liver isoform (Homo sapiens)
CLASS_ASSIGNMENT: True

COMPOUND: O=C(O)c1ccc(NC(=O)c2ccc3c(c2)N(S(=O)(=O)c2cccc(Cl)c2)CC[S+]3[O-])cc1 (centres undefined)
TARGET_OF_ASSAY: Carnitine O-palmitoyltransferase 1, liver isoform (Homo sapiens)
CLASS_ASSIGNMENT: False

COMPOUND: O=C(O)Cc1csc(NC(=O)c2ccc3c(c2)N(S(=O)(=O)c2cccc(Cl)c2)CCO3)n1
TARGET_OF_ASSAY: Carnitine O-palmitoyltransferase 1, liver isoform (Homo sapiens)
CLASS_ASSIGNMENT: True

COMPOUND: COc1ccc(Cl)cc1S(=O)(=O)N1C[C@H](C)c2ccc(C(=O)Nc3ccc(C(=O)O)cc3)cc21
TARGET_OF_ASSAY: Carnitine O-palmitoyltransferase 1, liver isoform (Homo sapiens)
CLASS_ASSIGNMENT: True

COMPOUND: COc1ccc(Cl)cc1S(=O)(=O)N1CCCCc2ccc(C(=O)Nc3ccc(C(=O)O)c(Cl)c3)cc21
TARGET_OF_ASSAY: Carnitine O-palmitoyltransferase 1, liver isoform (Homo sapiens)
CLASS_ASSIGNMENT: False

COMPOUND: O=C(O)c1ccc(C(=O)Nc2nn(Cc3ccc(OC(F)F)cc3)c3ccc(F)cc23)cc1
TARGET_OF_ASSAY: Carnitine O-palmitoyltransferase 1, liver isoform (Homo sapiens)
CLASS_ASSIGNMENT: False

Kindly review the next compound as well.
Problem: Lab note: IC50 threshold 80 nM. Does this compound come in strictly under it? `O=C(COc1ccccc1)N1CCCC[C@@H]1C#Cc1ccc2[nH]cnc2c1`
Result: False

---

Molecular target: Carnitine O-palmitoyltransferase 1, muscle isoform (Homo sapiens, UniProt Q92523)
Test: SUPPLEMENTARY: Inhibition of Carnitine palmitoyltransferase 1, muscle isoform
TEST_READOUT: IC50 (µM)
State just the number; it will be interpreted in µM.

Problem: Determine its reported IC50: `Cc1cc(C)cc(S(=O)(=O)N2CCOc3ccc(C(=O)Nc4nc(CC(=O)O)cs4)cc32)c1`
Result: 0.797

Problem: Supply reported IC50 belonging to this molecule: `CCn1cc(S(=O)(=O)c2cc(Cl)ccc2OC)c2cc(C(=O)Nc3ccc(C(=O)O)cc3)ccc21`
Result: 1.96

Problem: Specify reported IC50 for the molecule shown: `COc1ccc(Cl)cc1CN1C(=O)OCc2ccc(C(=O)Nc3nc(CC(=O)O)cs3)cc21`
Result: 21.9

---

Molecular target: Carnitine O-palmitoyltransferase 1, muscle isoform (Homo sapiens, UniProt Q92523)
Experiment: SUPPLEMENTARY: Inhibition of Carnitine palmitoyltransferase 1, muscle isoform
TEST_READOUT: pIC50
pIC50 here is simply -log10 of the concentration when that concentration is written in mol/L.

SMI: COc1ccc(Cl)cc1S(=O)(=O)N1CCc2c(C)cc(C(=O)Nc3ccc(C(=O)O)cc3)cc21
pIC50: 5.26
--
SMI: O=C(COc1ccccc1)N1CCCC[C@@H]1c1noc(-c2cccc(-n3cc[nH]c3=O)c2)n1
pIC50: 4.08
--
SMI: COc1ccc(Cl)cc1CN1C(=O)OC(C)(C)c2ccc(C(=O)Nc3ccc(CC(=O)O)c(Cl)c3)cc21
pIC50: 5.73
--
SMI: COc1ccc(C)cc1S(=O)(=O)N1CCOc2ccc(C(=O)Nc3ccc(C(=O)O)c(F)c3)cc21
pIC50: 5.67
--
SMI: COc1ccc(Cl)cc1Cn1ccc2ccc(C(=O)Nc3nc(CC(=O)O)cs3)cc21
pIC50: 4.62

# input for lookup
Problem: Fill in pIC50 for record `COc1ccc(Cl)cc1S(=O)(=O)c1nn(CCC(=O)O)c2ccc(C(=O)Nc3ccccc3)cc12`
Result: 4.31
